- target.system: T1, human heterodimeric single-chain CD3εγ extracellular domain (human, UniProt P07766 23-126; P09693 23-116)
- T1 construct: extracellular domain; Produced in-house; also called scCD3γε; human CD3ge
- T1 sequence (P07766 23-126, chain 1 of 2): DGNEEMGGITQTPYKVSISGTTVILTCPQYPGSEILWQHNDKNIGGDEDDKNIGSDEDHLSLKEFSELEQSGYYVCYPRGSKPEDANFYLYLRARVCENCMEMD
- T1 sequence (P09693 23-116, chain 2 of 2): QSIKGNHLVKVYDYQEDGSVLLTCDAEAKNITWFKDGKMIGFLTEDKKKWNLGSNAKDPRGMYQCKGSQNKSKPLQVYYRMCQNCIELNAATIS
- procedure.summary: SPR, rabbit IgG captured, human single-chain CD3εγ ECD injected
Answer each item with its documented kon.
One number for each entry, in M⁻¹ s⁻¹.

These recorded examples may help you get a feel for the data.
>>> result_number("clone-12 (antibody, V domains shown, Recombinant rabbit IgG) VH: QSLEESGGRLVTPGTPLTLTCTVSGFPLSRYAMLWVRQAPGKGLEWIGLITRADNKYYASWAKGRFTISKTSTTVDLEITSPTTEDTATYFCARRHYNTDGYPIAIGDLWGPGTLVTVSS VL: AQVLTQTPSSVSATVGGTVTISCQSNENIYSNNRLSWFQQKPGQPPKLLIYSASSLASGVPSRFKGSGSGTQFTLTISDLECDDAATYYCQGEFNCNSADCFTFGGGTEVVVKG")
721000
>>> result_number("clone-01 (antibody, V domains shown, Recombinant rabbit IgG; also called purified monoclonal rabbit anti-CD3ε antibody clone-01) VH: QSVEESGGRLVTPGTPLTLTCTVSGFPLSSYAMIWVRQAPGKGLEWIGMILRAGNIYYASWAKGRFTISKTSTTVDLKITSPTTEDTATYFCARRQYNTDGYPIGIGDLWGPGTLVTVSS VL: AQVLTQTASSVSAAVGGTVTISCQSSESVYNNNRLSWFQQKPGQPPKQLIYSASSLASGVPSRFKGSGSGTQFTLTISDLECDDAATYYCQGEFSCSSADCFTFGGGTEVVVKG")
536000

Here's the next entry for you.
I would be grateful if you could share the reported kon for clone-09 (antibody, V domains shown, Recombinant rabbit IgG) VH: QSLEESGGRLVTPGTPLTLTCTVSGFPLNRYAMLWVRQAPGKGLEWIGLITRADKKYYASWAKGRFTISKTSTTVDLEITGPTTEDTATYFCARRHYNTDGYPVAIGDLWGPGTLVTVSS VL: AQVLTQTPSSVSAAVGGTVTISCQSNENIYSNNRLSWFQQKPGQPPNQLIYSASSLASGVPSRFKGSGSGTQFTLTISDLECDDAATYYCQGEFNCNSADCFTFGGGTEVVVKG .
601000
